assay: Octanol-water partition coefficient, logD of the compound in PBS at pH 7.4 by liquid chromatography based mass spectrometric analysis; assay type: physicochemical
READOUT: logD

{"columns": ["COMPOUND", "RESULT"],
 "data": [
  ["CC(C)[C@]12O[C@H]1[C@@H]1O[C@]13[C@]1(O[C@H]1C[C@H]1C4=C(CC[C@@]13C)C(=O)OC4)[C@@H]2O [TRIPTOLIDE]", -0.56],
  ["CC(C)[C@]12O[C@H]1[C@@H]1O[C@]13[C@]1(O[C@H]1C[C@H]1C4=C(CC[C@@]13C)C(=O)OC4)[C@@H]2OC(=O)CCC(=O)O[C@H]1[C@H](O)[C@@H](O)C(O)O[C@@H]1CO (stereo not given in full)", -0.331],
  ["CC(C)[C@]12O[C@H]1[C@@H]1O[C@]13[C@]1(O[C@H]1C[C@H]1C4=C(CC[C@@]13C)C(=O)OC4)[C@@H]2OC(=O)CCC(=O)O[C@H]1C(O)O[C@H](CO)[C@@H](O)[C@@H]1O (stereo not given in full)", -0.347],
  ["CC(C)[C@]12O[C@H]1[C@@H]1O[C@]13[C@]1(O[C@H]1C[C@H]1C4=C(CC[C@@]13C)C(=O)OC4)[C@@H]2OC(=O)CCC(=O)O[C@H]1[C@H](O)[C@@H](CO)OC(O)[C@@H]1O (stereo not given in full)", -0.772],
  ["CC(C)[C@]12O[C@H]1[C@@H]1O[C@]13[C@]1(O[C@H]1C[C@H]1C4=C(CC[C@@]13C)C(=O)OC4)[C@@H]2OC(=O)CCC(=O)O[C@@H]1O[C@H](CO)[C@@H](O)[C@H](O)[C@H]1O", -0.558]
]}
